protein stability index overview
Protocol details: protein stability index of a GFP-peptide fusion (yeast GPS) (PSI 1-4); higher = more stable; sorted into four equal gates, so the index is relative within each strain
Applied conditions: san1∆

Example entries begin here.
>  <Entry sequence>
FSWGRPADSTYGAYNTQ [PRE4]

>  <protein stability index>
2.94

$$$$
>  <Entry sequence>
ENYDAKIELEKKEKWAR [YIL149C/MLP2]

>  <protein stability index>
2.67

$$$$
>  <Entry sequence>
EFLINEGTPINNVYFAA [RPN14]

>  <protein stability index>
1.91

$$$$
>  <Entry sequence>
TVQNEILGDLGKEFGTT [FAS2]

>  <protein stability index>
2.57

$$$$
>  <Entry sequence>
EENEDNDGNNRTNNVPM [NUT1]

>  <protein stability index>
3.31

$$$$
>  <Entry sequence>
NGKVQYFLRRQYILQIV [YJL039C/NUP192]

>  <protein stability index>
1.33

$$$$

Problem: Tell me the measured protein stability index of PTVDEQRQYKVQLLLHI [SNF11] , please.
Result: 1.82

Problem: Same for KVFDTLTRFSHDADLEV [RPN1]
Result: 2.44

###

Protocol details: protein stability index of a GFP-peptide fusion (yeast GPS) (PSI 1-4); higher = more stable; sorted into four equal gates, so the index is relative within each strain
Applied conditions: san1∆
Metric name: protein stability index
# print the numeric value only

Example entries begin here.
>  <Entry sequence>
KNNILGSNVLKSGKTIV [RRP43]

>  <protein stability index>
3.04

$$$$
>  <Entry sequence>
EIRRSLSLNLGDYGSAK [POP5]

>  <protein stability index>
3.05

$$$$

Problem: Tell me the measured protein stability index of EARINELLSSLEGKGSL [RPP2B] , please.
Result: 2.91

Problem: Same for NLLESITKLLEINLSKI [YCS4]
Result: 2.94

Problem: Same for IESQNLDLIPHSSSVFK [SRB4]
Result: 2.55

###

Protocol details: protein stability index of a GFP-peptide fusion (yeast GPS) (PSI 1-4); higher = more stable; sorted into four equal gates, so the index is relative within each strain
Applied conditions: san1∆
Metric name: protein stability index
# print the numeric value only

>  <Entry sequence>
LTGEWSTKFDYPPMPFD [FAS1]

>  <Recorded number>
2.85

$$$$
>  <Entry sequence>
IKPKPLWSGKQILSVAI [RPO21]

>  <Recorded number>
1.4

$$$$
>  <Entry sequence>
VLRTALVHDGLARGLRE [RPS12]

>  <Recorded number>
2.77

$$$$
>  <Entry sequence>
PSYAERQSSDESDNYRL [YML031W/NDC1]

>  <Recorded number>
2.75

$$$$
>  <Entry sequence>
KMENLMRLIKRVRAESL [YJL039C/NUP192]

>  <Recorded number>
1.32

$$$$

Problem: Tell me the measured protein stability index of HLVMRAISLGLLKGSID [RPN9] , please.
Result: 1.58

Problem: Same for EFIAHRLGLIPLQSMDI [RPB3]
Result: 1.92

Problem: Same for QLIPIILRQRGPGFKFV [SRB4]
Result: 1.47

###

Protocol details: protein stability index of a GFP-peptide fusion (yeast GPS) (PSI 1-4); higher = more stable; sorted into four equal gates, so the index is relative within each strain
Applied conditions: san1∆
protein stability index overview
# print the numeric value only

Example entries begin here.
>  <Entry sequence>
CVNLSLFDARFERKNPH [SRB8]

>  <protein stability index>
3.34

$$$$
>  <Entry sequence>
TRAAKIAPRPLDLLRPV [RPL13A]

>  <protein stability index>
3.15

$$$$
>  <Entry sequence>
SAGFETDLRLSTNGLGM [SNU114]

>  <protein stability index>
2.98

$$$$
>  <Entry sequence>
KGIAKEHAKWGPAAAIE [RPB3]

>  <protein stability index>
3.06

$$$$
>  <Entry sequence>
TQTGQNTGPSTGGLFGA [YGL172W/NUP49]

>  <protein stability index>
2.93

$$$$

Problem: Tell me the measured protein stability index of KENEESLTPTQSDSAKV [PRP28] , please.
Result: 2.9

Problem: Same for PKNKLVPTLEAKRDYII [FAS1]
Result: 2.63

Problem: Same for LRLRGGIIEPSLKALAS [RPL40A]
Result: 2.7

Problem: Same for LLWLVLIHPENFTCNRK [SWI1]
Result: 2.38

Problem: Same for DSNGDFNEDQLFSLLEL [RRP46]
Result: 3.31

Problem: Same for EVQRILIELLTQMDGFD [RPT3]
Result: 1.41
